biological target: LIGHT (human, UniProt O43557 74-240, limits assumed); test: phage ELISA
Sequence (O43557 74-240 limits assumed): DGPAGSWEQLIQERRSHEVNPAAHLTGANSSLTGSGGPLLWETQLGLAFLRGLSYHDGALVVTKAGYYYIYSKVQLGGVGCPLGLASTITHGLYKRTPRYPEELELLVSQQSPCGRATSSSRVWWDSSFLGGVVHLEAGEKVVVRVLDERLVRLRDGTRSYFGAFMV

Binder: I003C06 (scFv) scFv: QVQLVQSGAEVKKPGSSVKVSCRASGGSFNHAISWVRQAPGRGLEWMGGILPMYGTANYAQKFQGRVTITADKLTNTVYMDLSRLRYEDTAVYYCARELGLSIVGATTGALDMWGKGTLVTVSSGGGGSGGGGSGGGGSALPVLTQPPSVSVAPGQTATLTCGGTNFGRQSVHWYQQKPGQAPVLAIYHDDVRPSGIPERLSGSKSGNTATLTISRVEAGDEAAYYCQVWDSGSDVVVFGGGTKLTVLG
binding result: no binding
//
Binder: I064C07 (scFv) scFv: QVQLVQSGAEVKKPGSSVKVSCKASGGTFSSYAISWVRQAPGQGLEWMGGIIPIFGTANYAQKFQGRVTITADDLTRTAYMEMSSLKFEDTAVYYCASSEGTIFGVDWGRGTLVTVSSGGGGSGGGGSGGGGSDIQMTQSPSFLSASVGDRVTITCRASQGINNYLAWYQQKPGRAPKLLMYAASSLQSGVPSRFSGSGSGTDFTLTISSLQPEDFATYYCLQDSDYPLTFGGGTKLEIKR
binding result: no binding
//
Binder: I072B09 (scFv) scFv: QVQLQQSGAEVKKPGASVKVSCRASGYTFTKYTMHWVRQAPGQGPEWMGWINGGSGDTKYSRKFQGRVTITKDTSASAAYMELSSLGSEDTALYYCARATYDPLTGYSFDGFDIWGQGTLVTVSSGGGGSGGGGSGGGGSSELTQDPAVSVALGQTVRITCQGDSLRSYYTNWFQQKPGQAPLLVVYAKNKRPSGIPDRFSGSSSGNTASLTITGAQAEDEADYYCNSRDSSGNHVVFGGGTKLTVLD
binding result: no binding
